- assayDetails: soluble on expression in E. coli; label from the status in PepcDB or PDB records

residues	soluble on expression in E. coli
MAHHHHHHMSSVSSPPLTDAEVRELSTAEIRLNLERCSRLLSQASLLRRLRDGGEGIRHRSELFAKELERRHTVEAANGDASTRLASSTLTEALKRENEAAILSESTHNATDAAREIAQKYRDQRIDVEATVRRIYEGILSESEIQRILHSVPPRFFLTYAETCEMERQLARDARKVELQKLAAQAARLSATPQ	soluble
GAMGDASRVRVSGQGLHEGHTFEPAEFIIDTRDAGYGGLSLSIEGPSKVDINTEDLEDGTCRVTYCPTEPGNYIINIKFADQHVPGSPFSVKVTGEGRVKESITRRRRAPSVANVGSHCDLSLKIPEISIQDMTAQVTSPSGKTHEAEIVEGENHTYCIRFVPAEMGTHTVSVKYKGQHVPGSPFQFTVGPLGEGGAHKVRAGGPGLERAEAGVPAEFSIWTREAGAGGLAIAVEGPSKAEISFEDRKDGSCGVAYVVQEPGDYEVSVKFNEEHIPDSPFVVPVASPS	soluble

----------
- assayDetails: soluble on expression in E. coli; label from the status in PepcDB or PDB records

residues	soluble on expression in E. coli
MRIQFEIKESLINILDQLMHSDFWATEIKEDESGKKIIKIKDLAYNLEAVAEVMGNEIFIRTALSKYTYRIYEVKGECWCEYVGAYRGFLEQKLLPIITPKENLLECEVLDSSILGGKQKTLREYAEDNLKLKKFREQNFGNNGFSKADHPRRVYDEFIKEDFIPEDKKGHSLNITKSAN	not soluble
SLLLLQSILITKIMVIQLILFFEYALASGFEDKNILKEGKMMFDTLLKQFLEIDKVISLLYKDFVDNYIDFKNLEIVKIKKENEIENKLKSLLKSENIDYALVVAPEDEDILYNLTKIIESYPVKNLGCSSEAIKIAGNKYLTYLAIKDAVKTPKTFPPKKYVVKKIDSCGGKFNLFDENFLIQEFIDGENLSVSLIVGKKIHPLSLNRQYIDKRGFVGGEVNINHKLKDKIFNEAIKAVKCINGLNGYVGVDVIVNNDGIYIIEINPRITTTIYGLKTNPSLAELLIKNANNEELKFKVKGEKFTIDK	not soluble

----------
- assayDetails: soluble on expression in E. coli; label from the status in PepcDB or PDB records
measurementLabel: soluble on expression in E. coli

Sample answers from the record:
residues	soluble on expression in E. coli
GAKLNRKLRQDSTDRYKTKLYLWRNLGGLIPEDMAISVTESITADWKQYNDMMSKVRNETLDILKTNKVATEDYIGYIAFAEELAHQVWKNKNSSPDPNTANEASKTDLESKYSDVYGLDVTVLDAIYNAVIPIIMGGGS	soluble
MVASESILQALQTVIDPNTGKDLVTTRAIRNLEVNGADVTFDAQLGYPAKSQIPALRRALIAAARGVAGVDNVSVNMQSVIETHAVPRGIALLPNVKNVIAVASGKGGVGKSTTAVNLALALAAEGARVGLLDADIYGPSQAQMMGIEGRPQSEDGKTMEPLENYGVQVMSIGFLVDADEAMIWRGPMAVQALEQLLRQTNWKNLDYLVIDMPPGTGDIHLTLSQKVPVTGAVIVTTPQDIALLDARKGVKMFEKVGVPIVGVVENMAVHVCSQCGHAEHIFGQGGGQRMAQDYGLAYLGALPLDINIRQQADGGRPSVVADPDGEVAGLYKDVARQVAVAVAAMGKDYSSKFSSISISRAPAGGAAALEHHHHHH	soluble
MGSDKIHHHHHHMKIAVLSGKGGTGKTLVAVNLAAAAQRSTYIDCDVEEPNGHLFFKPEILQEEEITVKIPRVEDTLCQGCRRCVDFCQFNALAYIKEKLLVFEDVCHSCGGCILLCPEKALTEQEKGIGKVQKGLSDQVRVYTGVLNIGEVSGVPIIKKLLNENKSDKNEPESDQLTFIDCPPGSACSVMESIKDADYCLLVAEPTLFGVHNLNMVHELVKIFNKPCGVVLNKSLEGENPAETFCLEKNIKILSRLPFDHELGRLNSNAEIAVRKSEPYKALFSALLETVTKEVQHETAAYS	not soluble
MEKTLETVPLERKKREKEQFRKLFIGGLSFETTEESLRNYYEQWGKLTDCVVMRDPASKRSRGFGFVTFSSMAEVDAAMAARPHSIDGRVVEPKRAVAREESG	soluble
ILGPHHLDEYVRVWAEYDPAACGRIHYKDMYSLLRVISPPLGLGKKCPHRVACKRLLRMDLPVADDNTVHFNSTLMALIRTALDIKIAKGGADKQQMDAELRKEMMAIWPNLSQKTLDLLVTPHKSTDLTVGKIYAAMMIMEYYRQSKAKKLQAMREEQDRTPLMFQRMEPPSPTQEGGPGQNALPSTQLDPGGALMAHESGLKESPSWVTQRAQEMFQKTGTWSPE	not soluble

Now for another entry.
Ask | Requested read-out: soluble on expression in E. coli. Entry: MAHHHHHHMDEYDYNYATYDIDNFTNNFEDNLINYNQIDFINDNAEINNYSNEYYAYDEDLVEENVSEKRIHNKVLLSNDNEFDNNLINISNEIKTENSNNDTSLLKKRKIINDILLNIKKKMKKNDTLCIICLQNEKKYTFTCCYEYYCSLECFKKHDQQKCRNQNKNEPKISGSHNINMDDIKNSNHQKYEDTYYYQNEEDINKKQNDKVIENTIKLDNENKKNEINNINDMDTTCSNFPNNNLSTSLLNNDNNIPNNNENSESSDDYTDDYDMLTEEQKKKLKEDHTLKILLKNNYVREVFKQFTLSNDKIGYLSHYINDPTIVQVIDHIMKTIDDT
Reply | not soluble
